Tested on: Shigella flexneri
test protocol: MIC against clinical isolates
Assay type: cell-based
run parameters: Table 5-5, clinical isolate; unit assumed
quantity kind: MIC Shigella flexneri JS 11215 (µg/mL)
Give a bare numeral; the unit µg/mL is implied.

{"compound": "CCCCCCCCN1CCN(C(=O)NC(C(=O)NC2C(=O)N3C2SC(C)(C)C3C(=O)O)c2ccccc2)C(=O)C1=O (single isomer, unassigned)", "tgt": "Shigella flexneri", "unit of measurement": "µg/mL", "experimental value": 6.25}

Task: # query: MIC Shigella flexneri JS 11215 of entry CCCCN1CCN(C(=O)NC(C(=O)NC2C(=O)N3C2SC(C)(C)C3C(=O)O)c2ccccc2)C(=O)C1=O (single isomer, unassigned)
Result: 25

Task: State the recorded MIC Shigella flexneri JS 11215 for this entry: CCN1CCN(C(=O)N[C@@H](C(=O)N[C@@H]2C(=O)N3[C@@H]2SC(C)(C)[C@@H]3C(=O)O)c2ccccc2)C(=O)C1=O
Result: 100

Task: Reported MIC Shigella flexneri JS 11215 for CCCCCCN1CCN(C(=O)NC(C(=O)NC2C(=O)N3C2SC(C)(C)C3C(=O)O)c2ccccc2)C(=O)C1=O (single isomer, unassigned) : what is it?
Result: 6.25

====

System: Klebsiella pneumoniae
test protocol: MIC against clinical isolates
Assay type: cell-based
run parameters: Table 5-4, clinical isolate; unit assumed
# MIC Klebsiella pneumoniae GN 917 listing for each entry below
Give just the numeric value; µg/mL need not be written.

# example entries with known answers
{"compound": "CCCCCN1CCN(C(=O)NC(C(=O)NC2C(=O)N3C2SC(C)(C)C3C(=O)O)c2ccccc2)C(=O)C1=O (single isomer, unassigned)", "quantity kind": "MIC Klebsiella pneumoniae GN 917", "unit of measurement": "µg/mL", "experimental value": 1.57}
{"compound": "CCCCCCCCN1CCN(C(=O)NC(C(=O)NC2C(=O)N3C2SC(C)(C)C3C(=O)O)c2ccccc2)C(=O)C1=O (single isomer, unassigned)", "quantity kind": "MIC Klebsiella pneumoniae GN 917", "unit of measurement": "µg/mL", "experimental value": 1.57}
{"compound": "CCCN1CCN(C(=O)NC(C(=O)NC2C(=O)N3C2SC(C)(C)C3C(=O)O)c2ccccc2)C(=O)C1=O (single isomer, unassigned)", "quantity kind": "MIC Klebsiella pneumoniae GN 917", "unit of measurement": "µg/mL", "experimental value": 3.13}
{"compound": "CN1CCN(C(=O)NC(C(=O)NC2C(=O)N3C2SC(C)(C)C3C(=O)O)c2ccccc2)C(=O)C1=O (single isomer, unassigned)", "quantity kind": "MIC Klebsiella pneumoniae GN 917", "unit of measurement": "µg/mL", "experimental value": 12.5}

Task: State the recorded MIC Klebsiella pneumoniae GN 917 for this entry: CC(C)N1CCN(C(=O)NC(C(=O)NC2C(=O)N3C2SC(C)(C)C3C(=O)O)c2ccccc2)C(=O)C1=O (single isomer, unassigned)
Result: 6.25

====

Test system: Escherichia coli NIHJ
test protocol: MIC, plate method, standard strains
Type: cell-based
run parameters: Table 4, standard strain; unit assumed
In this section, each of the molecules is paired with its reported MIC Escherichia coli NIHJ.

Answered examples (2):
{"molecule": "CC(=O)OCC1=C(C(=O)O)N2C(=O)[C@@H](NC(=O)Cc3cccs3)[C@H]2SC1 [drawing 248, reference compound]", "MIC Escherichia coli NIHJ": "< 1.57 µg/mL"}
{"molecule": "Cn1nnnc1SCC1=C(C(=O)O)N2C(=O)C(NC(=O)C(NC(=O)N3CCN(CCO)C(=O)C3=O)c3ccc(O)cc3)C2SC1 (single isomer, unassigned)", "MIC Escherichia coli NIHJ": "< 1.57 µg/mL"}

Task: Hello, I am looking for reported MIC Escherichia coli NIHJ with Escherichia coli NIHJ for Cn1nnnc1SCC1=C(C(=O)O)N2C(=O)C(NC(=O)C(NC(=O)N3CCN(CCO)C(=O)C3=O)c3ccccc3)C2SC1 (single isomer, unassigned) . Could you help?
Result: < 0.1 µg/mL

Task: Given the entry CCN1CCN(C(=O)NC(C(=O)NC2C(=O)N3C(C(=O)O)=C(CSc4nnc(C)s4)CSC23)c2ccc(O)cc2)C(=O)C1=O (single isomer, unassigned) , what MIC Escherichia coli NIHJ was observed with Escherichia coli NIHJ?
Result: < 0.4 µg/mL

Task: Param readout= MIC Escherichia coli NIHJ; system= Escherichia coli NIHJ; entry= CCN1CCN(C(=O)NC(C(=O)NC2C(=O)N3C(C(=O)O)=C(CSc4cnn[nH]4)CSC23)c2ccccc2)C(=O)C1=O (single isomer, unassigned) ; returns value.
Result: < 0.4 µg/mL
